SUBJECT_OF_TEST: human PI3Kalpha p110 catalytic subunit (Rat-1 pBABEpuro Myr-HA-hp110alpha) (Homo sapiens)
Construct: Myr (myristoylation signal) (N); HA (N)
Sequence (P42336 whole entry): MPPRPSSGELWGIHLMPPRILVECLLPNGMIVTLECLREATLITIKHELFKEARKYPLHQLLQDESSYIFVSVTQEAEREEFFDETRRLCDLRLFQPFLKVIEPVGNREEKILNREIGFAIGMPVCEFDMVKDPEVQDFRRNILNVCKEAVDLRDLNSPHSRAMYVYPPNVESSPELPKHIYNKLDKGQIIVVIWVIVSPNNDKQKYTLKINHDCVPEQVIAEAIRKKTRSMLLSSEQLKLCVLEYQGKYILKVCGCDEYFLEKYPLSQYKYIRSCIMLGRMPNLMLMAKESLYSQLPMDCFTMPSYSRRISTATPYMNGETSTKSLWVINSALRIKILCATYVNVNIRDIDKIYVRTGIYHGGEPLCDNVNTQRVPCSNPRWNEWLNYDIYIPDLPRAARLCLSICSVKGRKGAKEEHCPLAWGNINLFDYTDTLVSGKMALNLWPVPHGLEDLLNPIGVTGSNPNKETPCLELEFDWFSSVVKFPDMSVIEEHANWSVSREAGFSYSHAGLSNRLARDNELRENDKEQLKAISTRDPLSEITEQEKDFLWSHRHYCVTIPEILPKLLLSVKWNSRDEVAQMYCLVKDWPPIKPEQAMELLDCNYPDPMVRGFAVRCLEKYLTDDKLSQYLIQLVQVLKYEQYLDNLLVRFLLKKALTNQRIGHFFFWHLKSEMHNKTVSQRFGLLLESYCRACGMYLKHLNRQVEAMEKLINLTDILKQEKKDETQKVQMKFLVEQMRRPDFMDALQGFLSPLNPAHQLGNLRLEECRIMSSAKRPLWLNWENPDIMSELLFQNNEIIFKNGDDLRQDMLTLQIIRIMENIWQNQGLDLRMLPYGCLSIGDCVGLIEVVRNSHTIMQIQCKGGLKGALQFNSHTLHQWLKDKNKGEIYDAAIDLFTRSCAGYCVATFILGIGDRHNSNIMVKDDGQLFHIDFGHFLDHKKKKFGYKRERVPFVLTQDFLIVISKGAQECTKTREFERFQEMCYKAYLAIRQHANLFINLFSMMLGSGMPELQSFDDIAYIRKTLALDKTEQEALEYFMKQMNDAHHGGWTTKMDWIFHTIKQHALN
Sequence (Q63787 whole entry partner): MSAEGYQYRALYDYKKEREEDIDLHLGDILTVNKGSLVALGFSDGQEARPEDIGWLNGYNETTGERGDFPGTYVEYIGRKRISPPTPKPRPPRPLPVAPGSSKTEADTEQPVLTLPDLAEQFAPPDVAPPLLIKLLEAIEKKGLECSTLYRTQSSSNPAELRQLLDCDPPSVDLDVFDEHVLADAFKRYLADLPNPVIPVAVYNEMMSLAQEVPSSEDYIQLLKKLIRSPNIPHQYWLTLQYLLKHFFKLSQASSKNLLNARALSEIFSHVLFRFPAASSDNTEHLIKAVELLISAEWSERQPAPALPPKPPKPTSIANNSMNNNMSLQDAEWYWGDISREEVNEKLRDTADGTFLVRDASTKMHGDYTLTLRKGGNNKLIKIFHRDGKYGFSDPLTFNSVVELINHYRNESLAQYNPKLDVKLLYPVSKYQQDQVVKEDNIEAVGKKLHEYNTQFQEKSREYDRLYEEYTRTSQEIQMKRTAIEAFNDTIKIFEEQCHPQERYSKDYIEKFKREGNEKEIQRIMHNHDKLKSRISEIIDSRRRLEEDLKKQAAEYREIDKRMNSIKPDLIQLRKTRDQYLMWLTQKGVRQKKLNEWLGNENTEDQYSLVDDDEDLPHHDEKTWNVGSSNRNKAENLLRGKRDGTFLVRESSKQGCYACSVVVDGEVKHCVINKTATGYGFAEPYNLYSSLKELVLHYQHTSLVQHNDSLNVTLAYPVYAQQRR
PROTOCOL_DESCRIPTION: Cellular assay PI3Kalpha (p-Akt(S473) SureFire, Rat-1_PI3Kalpha cells)
CONDITION_SET: 1 h compound treatment, read-out: Rat1-PI3Ka/ IC50
ASSAY_ENDPOINT: IC50 (nM)

C[C@H]1[C@@H](CO)OC(=O)N1c1cc(-c2cnc(N)nc2C(F)(F)F)nc(N2CCOCC2)n1
50
CC1(CO)COC(=O)N1c1cc(-c2cnc(N)nc2C(F)(F)F)nc(N2CCOCC2)n1 (single isomer, unassigned) [Example 3A]
176
C[C@H]1OC(=O)N(c2cc(-c3cnc(N)nc3C(F)(F)F)nc(N3CCOCC3)n2)[C@H]1COC=O
113
C[C@H]1[C@@H](CCO)OC(=O)N1c1cc(-c2cnc(N)nc2C(F)(F)F)nc(N2CCOCC2)n1
20
[2H]C1([2H])OC([2H])([2H])C([2H])([2H])N(c2nc(-c3cnc(N)nc3C(F)(F)F)cc(N3C(=O)OC[C@@H]3C)n2)C1([2H])[2H]
178

[1] CC1(C)OC(=O)N(c2cc(-c3cnc(N)nc3C(F)(F)F)nc(N3CCOCC3)n2)[C@H]1CO
[2] C[C@H]1COCCN1c1nc(-c2cnc(N)nc2C(F)(F)F)cc(N2C(=O)OC[C@@H]2C)n1
# return whichever of 1 and 2 has the smaller IC50 Identify your selection by its label. 2

[P] Nc1ncc(-c2cc(N3C(=O)O[C@H]4CCCC[C@@H]43)nc(N3CCOCC3)n2)c(C(F)(F)F)n1
[Q] CC1(CO)COC(=O)N1c1cc(-c2cnc(N)nc2C(F)(F)F)nc(N2CCOCC2)n1 (racemic) [Example 3]
// which entry reports the smaller IC50, P or Q ? Answer = label. P

[A] C[C@@H](O)C[C@H]1OC(=O)N(c2cc(-c3cnc(N)nc3C(F)(F)F)nc(N3CCOCC3)n2)[C@H]1C (single isomer, unassigned)
[B] C[C@H]1CN(c2cc(-c3cnc(N)nc3C(F)(F)F)nc(N3CCOCC3)n2)C(=O)O1
[C] Nc1ncc(-c2cc(N3CCOC3=O)nc(N3CCOCC3)n2)c(C(F)(F)F)n1 [Example 11, reference compound]
Rank entries according to their IC50, from the largest number down. // respond by listing labels in the order requested C, B, A
